// read-out IC50, gathered for Endothelial lipase (Homo sapiens, UniProt Q9Y5X9) from published studies
Please assign N whenever IC50 is at or above 30 nM, and Y whenever it is below.

{"Compound": "N#CC1(NC(=O)CNC(=O)Cc2nc3ccc(-c4ccccc4)cc3s2)CC1", "Group": "Y"}
{"Compound": "O=C(c1nnc(NCCc2ccccc2)o1)c1nc2ccc(-c3ccc(F)cc3)cc2s1", "Group": "N"}
{"Compound": "N#CCNC(=O)Cc1nnc(Cc2nc3c(-c4ccccc4)cccc3s2)o1", "Group": "Y"}
{"Compound": "O=C(N[C@H]1CC[C@@H](c2ccccc2)CC1)c1ccn(CCCC(F)(F)F)c(=O)c1O", "Group": "N"}
{"Compound": "COc1ccc(CNc2nnc(C(=O)c3nc4ccc(-c5ccccc5)cc4s3)o2)c(OC)c1", "Group": "N"}
{"Compound": "O=C(NC1CCN(c2ccc(F)cc2)CC1)c1ccn(CC(F)(F)F)c(=O)c1O", "Group": "N"}
{"Compound": "O=C(NCc1ccccc1-c1ccc(F)cc1)c1ccn(CC(F)(F)F)c(=O)c1O", "Group": "Y"}
{"Compound": "Cc1ccc(-c2ccc3nc(Cc4nnc(CC(=O)NC5(C#N)CC5)o4)sc3n2)s1", "Group": "N"}
{"Compound": "O=C(NCCCc1ccc(Cl)c(Cl)c1)C1=C(O)C(=O)N(Cc2cc(Cl)cc(Cl)c2)C1", "Group": "Y"}
{"Compound": "COc1nc(-c2nnc(C(NC(C)=O)c3nc4ccc(-c5ccccc5)cc4s3)o2)c(O)c(=O)[nH]1 (stereo not shown)", "Group": "Y"}
{"Compound": "NS(=O)(=O)NCc1nnc(C(NC(=O)c2ccc(C(F)(F)F)cc2)c2nc3ccc(-c4ccccc4)cc3s2)o1 (stereo not shown)", "Group": "Y"}
{"Compound": "Cn1cc(-c2ccc3nc(Cc4nnc(CC(=O)NC5(C#N)CC5)o4)sc3c2Cl)cn1", "Group": "N"}
{"Compound": "CCN1CC(C(=O)N[C@@H]2CCc3cc(-c4ccccc4)ccc32)=C(O)C1=O", "Group": "N"}
{"Compound": "O=C(c1nnc(NC2CCCNC2=O)o1)c1nc2ccc(-c3ccccc3)cc2s1 (single isomer, unassigned)", "Group": "Y"}
{"Compound": "COC(=O)N[C@H]1CC[C@H](c2nnc(C(=O)c3nc4ccc(-c5ccccc5)cc4s3)o2)CC1", "Group": "N"}
{"Compound": "C[C@@H](NC(=O)C1=C(O)C(=O)N(C)C1)c1cccc(-c2cccc(C#N)c2)c1", "Group": "N"}
